study_target: HLA-A2 (Homo sapiens, UniProt P04439, D140Y/D185E/D98H/E176V/E277Q/G131W/G231S/I119V/I121R/I166T/I218V/L300P/L318F/N151K/N90K/P208A/P217A/Q86G/Q94H/R138H/R169H/T345S)
Construct: stabilization of the class I molecules after loading of peptide to the peptide transporter deficient cell line T2; endogenous in cells; host or cells: T2 (TAP-deficient human hybrid cell line), metabolically labelled lysate
protocol_notes: Assembly assay for peptide binding to class I MHC, HLA-A2
cond: Table 4, HLA-A2, 11-mers and controls; read-out: C50
Procedure: This assembly assay is carried out as described previously (12,13), and it is based on stabilisation of the HLA molecule after loading of peptide to the peptide transporter deficient cell line T2. Subsequently, correctly folded stable HLA heavy chains are immunoprecipitated using conformation dependent antibodies and the peptide binding is quantitated. […]
No end group written: not given here.

| item_sequence | EC50 |
| --- | --- |
| SVKKQFEELTL [Sur88-98] | > 100 µM |
| PTLPPAWQPFL [Sur4-14] | > 100 µM |
| KLDRERAKNKI [Sur103-113] | > 100 µM |
